Entries and their ORYSAT preemergence herbicidal rating values follow.
Test system: ORYSAT (Rice, Tebonnet)
Assay: Preemergence herbicidal evaluation
Type: in vivo, Oryza sativa, (L.) Tebonnet
Conditions: Rate 0.2500 kg/ha; preemergence; rated 4-5 weeks after treatment
API note: the answer field is a bare number with no unit suffix.

                                   compound  value
0  CCc1cc(-c2nsc3ccc(-n4c(=O)cc(C(F)(F)F)n(C)c4=O)cc23)c(CC)s1 [Compound 8]    0.0
1  Cc1cc(C)c(-c2nsc3ccc(-n4c(=O)cc(C(F)(F)F)n(C)c4=O)cc23)s1 [Compound 27]    1.0
2  Cn1c(C(F)(F)F)cc(=O)n(-c2ccc3snc(-c4cccnc4)c3c2)c1=O [Compound 11]    5.0

Now consider a different compound.
Prompt line: Which ORYSAT preemergence herbicidal rating is reported for this compound? Cn1ccnc1-c1nsc2ccc(-n3c(=O)cc(C(F)(F)F)n(C)c3=O)cc12 [Compound 5]
Response line: 7.5

###

Test system: GLXMAW (Soybean, Williams)
Test: Preemergence herbicidal evaluation
Format: in vivo, Glycine max, (L.) Merr. cv Williams
Conditions: Rate 0.1250 kg/ha; preemergence; rated 4-5 weeks after treatment
Entries and their GLXMAW preemergence herbicidal rating values follow.

>>> df
                                   compound       target_or_test_system  value
0  Cc1ccn(-c2nsc3ccc(-n4c(=O)cc(C(F)(F)F)n(C)c4=O)cc23)n1 [Compound 38]  GLXMAW (Soybean, Williams)    4.0
1  Cc1cccnc1-c1nsc2ccc(-n3c(=O)cc(C(F)(F)F)n(C)c3=O)cc12 [Compound 19]  GLXMAW (Soybean, Williams)    6.7
2  Cc1csc(-c2nsc3ccc(-n4c(=O)cc(C(F)(F)F)n(C)c4=O)cc23)n1 [Compound 7]  GLXMAW (Soybean, Williams)    0.0
3  Cn1c(C(F)(F)F)cc(=O)n(-c2cc3c(-c4ccccn4)nsc3cc2F)c1=O [Compound 25]  GLXMAW (Soybean, Williams)    7.0
4  Cn1ccnc1-c1nsc2ccc(-n3c(=O)cc(C(F)(F)F)n(C)c3=O)cc12 [Compound 5]  GLXMAW (Soybean, Williams)    3.5
5  COC(=O)COc1ccsc1-c1nsc2ccc(-n3c(=O)cc(C(F)(F)F)n(C)c3=O)cc12 [Compound 22]  GLXMAW (Soybean, Williams)    0.0

Prompt line: // lookup GLXMAW preemergence herbicidal rating | system=GLXMAW (Soybean, Williams) | key= Cn1c(C(F)(F)F)cc(=O)n(-c2ccc3snc(C4OCC(C)(C)CO4)c3c2)c1=O [Compound 36]
Response line: 9.0

Prompt line: Can you check Cc1ccsc1-c1nsc2ccc(-n3c(=O)cc(C(F)(F)F)n(C)c3=O)cc12 [Compound 4] next?
Response line: 4.4

Prompt line: Can you check CC(=O)N1CCSC1c1nsc2ccc(-n3c(=O)cc(C(F)(F)F)n(C)c3=O)cc12 (stereo not shown) [Compound 29] next?
Response line: 7.0

Prompt line: Can you check CC1CCOC(c2nsc3ccc(-n4c(=O)cc(C(F)(F)F)n(C)c4=O)cc23)O1 (stereo not shown) [Compound 37] next?
Response line: 9.0

###

Test system: GALAP (Galium aparine)
Assay: Postemergence herbicidal evaluation
Format: in vivo
Conditions: rate 0.0320 kg/ha
Quantity: Postemergence herbicidal rating, GALAP
API note: the answer field is a bare number with no unit suffix.

These solved cases illustrate the format of a correct answer.
In [3]: df
Out[3]:
                                   compound                                quantity  value
0  Cn1c(C(F)(F)F)cc(=O)n(-c2ccc3snc(C4SCCN4C(=O)c4ccccc4)c3c2)c1=O (stereo not drawn)  Postemergence herbicidal rating, GALAP    1.0
1  CC1CCOC(c2nsc3ccc(-n4c(=O)cc(C(F)(F)F)n(C)c4=O)cc23)O1 (stereo not drawn)  Postemergence herbicidal rating, GALAP    4.0
2  Cc1ccc(-c2nsc3ccc(N4C(=O)C5=C(CCCC5)C4=O)cc23)s1  Postemergence herbicidal rating, GALAP    1.0
3  CCOc1cc(OCC)nc(-c2nsc3ccc(-n4c(=O)cc(C(F)(F)F)n(C)c4=O)cc23)n1  Postemergence herbicidal rating, GALAP    4.0
4  COC(=O)COc1ccsc1-c1nsc2ccc(-n3c(=O)cc(C(F)(F)F)n(C)c3=O)cc12  Postemergence herbicidal rating, GALAP    0.0

Now consider a different compound.
Prompt line: Which Postemergence herbicidal rating, GALAP is reported for this compound? Cc1ccsc1-c1nsc2ccc(-n3c(=O)cc(C(F)(F)F)n(C)c3=O)cc12
Response line: 3.3

###

Tested on: MOOVA (Monochoria vaginalis)
Test: Flooded paddy, preemergence weed control
Format: in vivo, Presl.
Details: rate 0.1250 kg/ha, rated 3-4 weeks after treatment, 0-9 rating scale
Quantity: herbicidal rating, MOOVA
API note: the answer field is a bare number with no unit suffix.

These solved cases illustrate the format of a correct answer.
In [3]: df
Out[3]:
                                   compound         target_or_test_system  value
0  Cc1cc(C)c(-c2nsc3ccc(-n4c(=O)cc(C(F)(F)F)n(C)c4=O)cc23)s1  MOOVA (Monochoria vaginalis)    9.0
1  Cn1c(C(F)(F)F)cc(=O)n(-c2ccc3snc(C4OCCCO4)c3c2)c1=O  MOOVA (Monochoria vaginalis)    9.0
2  CCc1cc(-c2nsc3ccc(-n4c(=O)cc(C(F)(F)F)n(C)c4=O)cc23)c(CC)s1  MOOVA (Monochoria vaginalis)    9.0
3  Cc1cccnc1-c1nsc2cc(F)c(N3C(=O)C4=C(CCCC4)C3=O)cc12  MOOVA (Monochoria vaginalis)    7.0

Prompt line: Which herbicidal rating, MOOVA is reported for this compound? CC1CC(C)(C)OC(c2nsc3ccc(-n4c(=O)cc(C(F)(F)F)n(C)c4=O)cc23)O1 (stereo not shown)
Response line: 9.0

Prompt line: Can you check COCC1COC(c2nsc3ccc(-n4c(=O)cc(C(F)(F)F)n(C)c4=O)cc23)O1 (stereo not shown) next?
Response line: 9.0

Prompt line: Can you check Cc1ccc(-c2nsc3ccc(-n4c(=O)cc(C(F)(F)F)n(C)c4=O)cc23)nc1 next?
Response line: 9.0

Prompt line: Can you check CN(C(=O)c1nsc2ccc(-n3c(=O)cc(C(F)(F)F)n(C)c3=O)cc12)c1ccc(Cl)cc1 next?
Response line: 9.0

Prompt line: Can you check CCOC(=O)C1CS[C@H](c2nsc3ccc(-n4c(=O)cc(C(F)(F)F)n(C)c4=O)cc23)N1 (stereo partly shown) next?
Response line: 9.0

Prompt line: Can you check Cn1c(C(F)(F)F)cc(=O)n(-c2ccc3snc(C4=NCCO4)c3c2)c1=O next?
Response line: 9.0

Prompt line: Can you check Cn1c(C(F)(F)F)cc(=O)n(-c2ccc3snc(-c4sccc4Cl)c3c2)c1=O next?
Response line: 9.0

Prompt line: Can you check COC(=O)C(C)Oc1ccsc1-c1nsc2ccc(-n3c(=O)cc(C(F)(F)F)n(C)c3=O)cc12 (stereo not shown) next?
Response line: 9.0

Prompt line: Can you check CC1=CC(C)(C)OC(c2nsc3ccc(-n4c(=O)cc(C(F)(F)F)n(C)c4=O)cc23)C1 (stereo not shown) next?
Response line: 3.0

###

System: SAGPY (Sagittaria pygmaea)
Assay: Flooded paddy, preemergence weed control
Type: in vivo, L.
Conditions: rate 0.0080 kg/ha, rated 3-4 weeks after treatment, 0-9 rating scale
Entries and their herbicidal rating, SAGPY values follow.
API note: the answer field is a bare number with no unit suffix.

These solved cases illustrate the format of a correct answer.
>>> print(df.to_string())
                                   compound  value
0  C[C@@H]1C[C@H](C)OC(c2nsc3ccc(-n4c(=O)cc(C(F)(F)F)n(C)c4=O)cc23)O1 (some centres unmarked)    0.0
1  CC1COC(c2nsc3ccc(-n4c(=O)cc(C(F)(F)F)n(C)c4=O)cc23)O1 (centres unmarked)    0.0
2  Cn1c(C(F)(F)F)cc(=O)n(-c2ccc3snc(C4OCC5(CO4)CO5)c3c2)c1=O (centres unmarked)    0.0
3  Cn1c(C(F)(F)F)cc(=O)n(-c2ccc3snc(-c4nccs4)c3c2)c1=O    0.0
4  Cc1cnn(-c2nsc3ccc(-n4c(=O)cc(C(F)(F)F)n(C)c4=O)cc23)c1    0.0

Prompt line: Which herbicidal rating, SAGPY is reported for this compound? Cn1c(C(F)(F)F)cc(=O)n(-c2ccc3snc(C4OCCO4)c3c2)c1=O
Response line: 7.0

Prompt line: Can you check C[C@@H]1C[C@H](C)OC(c2nsc3cc(F)c(-n4c(=O)cc(C(F)(F)F)n(C)c4=O)cc23)O1 (some centres unmarked) next?
Response line: 1.5

Prompt line: Can you check Cn1c(C(F)(F)F)cc(=O)n(-c2cc3c(C4OCCO4)nsc3cc2F)c1=O next?
Response line: 3.0

Prompt line: Can you check CC(C)C1COC(c2nsc3ccc(-n4c(=O)cc(C(F)(F)F)n(C)c4=O)cc23)=N1 (centres unmarked) next?
Response line: 0.0

Prompt line: Can you check Cn1c(C(F)(F)F)cc(=O)n(-c2ccc3snc(-c4ccco4)c3c2)c1=O next?
Response line: 0.0

Prompt line: Can you check Cn1c(C(F)(F)F)cc(=O)n(-c2ccc3snc(C4OC(C)(C)C(C)(C)O4)c3c2)c1=O next?
Response line: 0.0

Prompt line: Can you check C[C@@H]1OC(c2nsc3cc(F)c(-n4c(=O)cc(C(F)(F)F)n(C)c4=O)cc23)O[C@@H]1C (some centres unmarked) next?
Response line: 2.5

Prompt line: Can you check Cc1sccc1-c1nsc2ccc(-n3c(=O)cc(C(F)(F)F)n(C)c3=O)cc12 next?
Response line: 0.0

Prompt line: Can you check Cn1c(C(F)(F)F)cc(=O)n(-c2cc3c(C4OCCCO4)nsc3cc2F)c1=O next?
Response line: 9.0

Prompt line: Can you check Cc1ccc(-c2nsc3ccc(-n4c(=O)cc(C(F)(F)F)n(C)c4=O)cc23)s1 next?
Response line: 0.0

Prompt line: Can you check Cc1cc(C)c(-c2nsc3ccc(-n4c(=O)cc(C(F)(F)F)n(C)c4=O)cc23)s1 next?
Response line: 0.0

Prompt line: Can you check Cn1c(C(F)(F)F)cc(=O)n(-c2ccc3snc(C4OC(=O)C(C)(C)O4)c3c2)c1=O (centres unmarked) next?
Response line: 0.0
